biological target: Thromboxane-A synthase (Rattus norvegicus) (UniProt P49430); details: at 100 µM;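 note: Read-out is thromboxane production, reported as percent inhibition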
Sequence (P49430 whole entry): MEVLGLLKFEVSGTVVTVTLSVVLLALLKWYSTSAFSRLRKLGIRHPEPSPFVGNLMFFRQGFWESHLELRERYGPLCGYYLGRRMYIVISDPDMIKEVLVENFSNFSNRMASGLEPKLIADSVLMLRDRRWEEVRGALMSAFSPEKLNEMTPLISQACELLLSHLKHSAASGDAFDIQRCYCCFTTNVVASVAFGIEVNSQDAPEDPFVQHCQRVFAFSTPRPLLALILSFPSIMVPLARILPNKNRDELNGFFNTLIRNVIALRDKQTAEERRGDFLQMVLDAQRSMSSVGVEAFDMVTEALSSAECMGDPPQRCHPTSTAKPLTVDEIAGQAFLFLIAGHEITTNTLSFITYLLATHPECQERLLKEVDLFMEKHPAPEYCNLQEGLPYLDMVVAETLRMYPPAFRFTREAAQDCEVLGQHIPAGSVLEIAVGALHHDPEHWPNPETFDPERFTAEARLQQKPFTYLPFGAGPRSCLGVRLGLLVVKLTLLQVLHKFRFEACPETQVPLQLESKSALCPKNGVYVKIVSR
Description: Inhibition of thromboxane formation at a concentration of 10e -4 M.
Hi there, I'd appreciate the recorded inhibition for every entry that follows.
Provide the reading as a plain figure in %.

Query: Output measured inhibition for this item: O=C(NCCCCn1ccnc1)c1cccs1
Result: 95

Query: Output measured inhibition for this item: O=C(NCCCCn1ccnc1)c1cc2cc(Cl)ccc2[nH]1
Result: 100

Query: Output measured inhibition for this item: Cc1ccc(C(=O)NCCCn2ccnc2)s1
Result: 96

Query: Output measured inhibition for this item: O=C(NCCCn1ccnc1)c1sc2ccccc2c1Cl
Result: 100

Query: Output measured inhibition for this item: O=C(NCCCn1ccnc1)c1cc2ccccc2[nH]1
Result: 94

Where do these numbers come from? They come from ChEMBL document CHEMBL1123758.
